tested on: Plasmodium falciparum; assay: Antimalarial activity against multidrug-resistant Plasmodium falciparum K1 after 42 hrs by [3H]hypoxanthine uptake; type: functional, organism-based
reported-property: IC50 (µg/mL)
API: value field is a number in µg/mL; no unit string.

Known IC50 results, listed for orientation:
- CC(C)=C[C@@H](O)C1=CC(=O)[C@@H]2O[C@@H]2C1=O: 2.1
- CC(C)=C[C@H](O)C1=C[C@@H](O)[C@@H]2O[C@@H]2C1=O: 3.4
- C=C1[C@@H](O)[C@H]2O[C@]23C[C@H]2CC(C)(C)[C@H](O)[C@H]2[C@]13C: 3.1

Please examine the following record next.
Given the entry C[C@H]1[C@@H](O)O[C@@H]2O[C@@]3(C)CC[C@H]4[C@H](C)CC[C@@H]1[C@@]24OO3 , report its measured IC50.
0.0018

###

tested on: Vero; assay: Cytotoxicity against african green monkey Vero cells by SRB assay; type: cell-based; details: Chlorocebus sabaeus
Consider the following compounds and their measured IC50 readings.
API: value field is a number in µg/mL; no unit string.

Known IC50 results, listed for orientation:
- C=C1[C@@H](O)[C@H]2O[C@]23C[C@H]2CC(C)(C)[C@H](O)[C@H]2[C@]13C: 1.1
- CC(C)=C[C@H](O)C1=C[C@@H](O)[C@@H]2O[C@@H]2C1=O: 0.9

Given the entry CC(C)=C[C@@H](O)C1=CC(=O)[C@@H]2O[C@@H]2C1=O , report its measured IC50.
0.2

###

Consider the following molecules and their measured IC50 readings.
tested on: KB; assay: Cytotoxicity against human KB cells by SRB assay; type: functional, cell-based

Recall the recorded IC50 for CC(C)=C[C@@H](O)C1=CC(=O)[C@@H]2O[C@@H]2C1=O with KB and state it.
0.8 µg/mL

Recall the recorded IC50 for C=C1[C@@H](O)[C@H]2O[C@]23C[C@H]2CC(C)(C)[C@H](O)[C@H]2[C@]13C with KB and state it.
> 20 µg/mL

Recall the recorded IC50 for C=C1C(=O)[C@H]2O[C@]23C[C@H]2CC(C)(C)[C@H](O)[C@H]2[C@]13C with KB and state it.
> 20 µg/mL

Recall the recorded IC50 for COc1ccc2c(c1)C(=O)CC(C)(C)O2 with KB and state it.
> 20 µg/mL

###

Consider the following compounds and their measured IC50 readings.
test system: KB; experiment: Cytotoxicity against human KB cells by SRB assay; type: functional, cell-based
API: value field is a number in mg/L; no unit string.

• Cc1c2ccncc2c(C)c2c1[nH]c1ccccc12 [ELLIPTECINE] = 0.21

Given the entry CC(C)=C[C@H](O)C1=C[C@@H](O)[C@@H]2O[C@@H]2C1=O [PANEPOXYDONE] , report its measured IC50.
1.9
